Reported Mutant Binding Strength (EC50 post-mutation / EC50 wild-type) values for the following binders.
- Target Or System: antibody antigen (CD47) coated in the ELISA of Example 3 (UniProt Q08722)
- Sequence (Q08722 19-139 limits assumed): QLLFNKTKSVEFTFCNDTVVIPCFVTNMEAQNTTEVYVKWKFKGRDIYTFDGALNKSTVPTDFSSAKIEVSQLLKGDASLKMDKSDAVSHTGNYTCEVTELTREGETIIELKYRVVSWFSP
- Measurement Description: ELISA on coated antigen, ratio against wild-type 70H1
Measured Quantity: Mutant Binding Strength (EC50 post-mutation / EC50 wild-type)

Binder	Observed
70H1 mutant VL-49 Y to C (antibody, V domains shown) VH: QQQLEESGGGLVKPEGSLTLTCTASGFSFSSGYDMCWVRQAPGRGLEWIACIYTRSSGGTYYASWAKGRFTISKTSSTVDLRMTSLTAADTATYFCAGGRSSYRLNLWGQGALVTVSS VL: DVVMTQTPSPVEAAVGGTVTIKCQASQSISNELSWYQQKPGQPPKLLICRASTLESGVSSRFKGSGSGTEFTLTISDLECADAATYYCQSTFYGDYGNAFGGGTEVVVK	0.9
70H1 mutant VL-53 T to C (antibody, V domains shown) VH: QQQLEESGGGLVKPEGSLTLTCTASGFSFSSGYDMCWVRQAPGRGLEWIACIYTRSSGGTYYASWAKGRFTISKTSSTVDLRMTSLTAADTATYFCAGGRSSYRLNLWGQGALVTVSS VL: DVVMTQTPSPVEAAVGGTVTIKCQASQSISNELSWYQQKPGQPPKLLIYRASCLESGVSSRFKGSGSGTEFTLTISDLECADAATYYCQSTFYGDYGNAFGGGTEVVVK	1
70H1 mutant VH-33 Y to C (antibody, V domains shown) VH: QQQLEESGGGLVKPEGSLTLTCTASGFSFSSGCDMCWVRQAPGRGLEWIACIYTRSSGGTYYASWAKGRFTISKTSSTVDLRMTSLTAADTATYFCAGGRSSYRLNLWGQGALVTVSS VL: DVVMTQTPSPVEAAVGGTVTIKCQASQSISNELSWYQQKPGQPPKLLIYRASTLESGVSSRFKGSGSGTEFTLTISDLECADAATYYCQSTFYGDYGNAFGGGTEVVVK	1
70H1 mutant VH-55 R to C (antibody, V domains shown) VH: QQQLEESGGGLVKPEGSLTLTCTASGFSFSSGYDMCWVRQAPGRGLEWIACIYTCSSGGTYYASWAKGRFTISKTSSTVDLRMTSLTAADTATYFCAGGRSSYRLNLWGQGALVTVSS VL: DVVMTQTPSPVEAAVGGTVTIKCQASQSISNELSWYQQKPGQPPKLLIYRASTLESGVSSRFKGSGSGTEFTLTISDLECADAATYYCQSTFYGDYGNAFGGGTEVVVK	1
70H1.IgG1.Y61C (antibody, V domains shown, IgG1; also called 70H1 IgG1-mutation; 70H1 mutant VH-61 (Y-C)) VH: QQQLEESGGGLVKPEGSLTLTCTASGFSFSSGYDMCWVRQAPGRGLEWIACIYTRSSGGTCYASWAKGRFTISKTSSTVDLRMTSLTAADTATYFCAGGRSSYRLNLWGQGALVTVSS VL: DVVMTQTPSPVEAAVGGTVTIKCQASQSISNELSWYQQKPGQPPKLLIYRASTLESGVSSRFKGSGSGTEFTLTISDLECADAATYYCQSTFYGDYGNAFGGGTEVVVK	1
